Data credit: ChEMBL document CHEMBL1125788

Would you mind telling me the reported Kb of each entry?
ASSAYED_TARGET: Beta-1 adrenergic receptor (Cavia porcellus)
RUN_DESCRIPTION: The compound was tested for beta-adrenergic activity against Beta-1 adrenergic receptor from guinea pig right atria
MEASUREMENT_CONDITIONS: read-out: pA2 (converted)
Numbers only here, please. The scale is µM.

Task: Can you look up the measured Kb of C/C(=N\OCC(O)CNC(C)(C)C)c1cc(Cl)c(NC2=NCCN2)c(Cl)c1 (single isomer, unassigned; (+)) for me?
Result: 50.1

Task: Can you look up the measured Kb of CC(C)(C)NCC(O)COc1cc(Cl)c(NC2=NCCN2)c(Cl)c1 (configuration not stated) for me?
Result: 50.1

Task: Can you look up the measured Kb of C/C(=N\OCC(O)CNC(C)(C)C)c1cc(Cl)c(OC(C)C2=NCCN2)c(Cl)c1 (configuration not stated) for me?
Result: 1.48

Task: Can you look up the measured Kb of C/C(=N\OCC(O)CNC(C)(C)C)c1cc(Cl)c(NC2=NCCN2)c(Cl)c1 (stereo in doubt; 3) for me?
Result: 39.8

Task: Can you look up the measured Kb of `Clc1cccc(Cl)c1N=C1NCCN1` for me?
Result: 39.8

Task: Can you look up the measured Kb of CC(C)(C)NCC(O)COCC1CN=C(Nc2c(Cl)cccc2Cl)N1 (configuration not stated) for me?
Result: 1.02

Task: Can you look up the measured Kb of C/C(=N\OCC(O)CNC(C)(C)C)c1cc(Cl)c(NC2=NCCN2)c(Cl)c1 (stereo in doubt; (-)-3) for me?
Result: 50.1

###

Would you mind telling me the reported Kb of each entry?
ASSAYED_TARGET: Beta-1 adrenergic receptor (Cavia porcellus, UniProt B0FL73)
Sequence (B0FL73 whole entry): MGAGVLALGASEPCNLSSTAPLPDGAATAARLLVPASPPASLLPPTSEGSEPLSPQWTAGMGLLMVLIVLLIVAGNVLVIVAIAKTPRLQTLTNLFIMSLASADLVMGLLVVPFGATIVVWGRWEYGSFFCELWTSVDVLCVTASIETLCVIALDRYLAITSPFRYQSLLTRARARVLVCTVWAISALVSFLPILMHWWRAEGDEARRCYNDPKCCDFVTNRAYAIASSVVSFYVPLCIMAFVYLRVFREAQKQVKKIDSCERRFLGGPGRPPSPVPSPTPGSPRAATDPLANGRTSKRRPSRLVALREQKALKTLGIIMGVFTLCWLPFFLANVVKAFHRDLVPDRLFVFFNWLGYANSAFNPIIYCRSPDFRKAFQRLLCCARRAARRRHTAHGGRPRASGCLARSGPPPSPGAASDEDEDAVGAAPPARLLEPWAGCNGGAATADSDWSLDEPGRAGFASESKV
RUN_DESCRIPTION: The compound was tested for beta-adrenergic activity against Beta-1 adrenergic receptor from guinea pig left atria
MEASUREMENT_CONDITIONS: read-out: pA2 (converted)

Task: Can you look up the measured Kb of C/C(=N\OCC(O)CNC(C)(C)C)c1cc(Cl)c(NC2=NCCN2)c(Cl)c1 (stereo in doubt; 3) for me?
Result: 39.8 µM

Task: Can you look up the measured Kb of C/C(=N\OCC(O)CNC(C)(C)C)c1cc(Cl)c(NC2=NCCN2)c(Cl)c1 (stereo in doubt; (-)-3) for me?
Result: 25.1 µM

Task: Can you look up the measured Kb of Clc1cccc(Cl)c1N=C1NCCN1 [CLONIDINE] for me?
Result: 63.1 µM

Task: Can you look up the measured Kb of CC(C)(C)NCC(O)COCC1CN=C(Nc2c(Cl)cccc2Cl)N1 (configuration not stated) for me?
Result: > 10 µM

Task: Can you look up the measured Kb of C/C(=N\OCC(O)CNC(C)(C)C)c1cc(Cl)c(OC(C)C2=NCCN2)c(Cl)c1 (configuration not stated) for me?
Result: 1.45 µM

Task: Can you look up the measured Kb of CC(C)(C)NCC(O)COc1cc(Cl)c(NC2=NCCN2)c(Cl)c1 (configuration not stated) for me?
Result: > 100 µM

Task: Can you look up the measured Kb of C/C(=N\OCC(O)CNC(C)(C)C)c1cc(Cl)c(NC2=NCCN2)c(Cl)c1 (single isomer, unassigned; (+)) for me?
Result: 50.1 µM

###

ASSAYED_TARGET: Beta-2 adrenergic receptor (Cavia porcellus, UniProt Q8K4Z4)
Sequence (Q8K4Z4 whole entry): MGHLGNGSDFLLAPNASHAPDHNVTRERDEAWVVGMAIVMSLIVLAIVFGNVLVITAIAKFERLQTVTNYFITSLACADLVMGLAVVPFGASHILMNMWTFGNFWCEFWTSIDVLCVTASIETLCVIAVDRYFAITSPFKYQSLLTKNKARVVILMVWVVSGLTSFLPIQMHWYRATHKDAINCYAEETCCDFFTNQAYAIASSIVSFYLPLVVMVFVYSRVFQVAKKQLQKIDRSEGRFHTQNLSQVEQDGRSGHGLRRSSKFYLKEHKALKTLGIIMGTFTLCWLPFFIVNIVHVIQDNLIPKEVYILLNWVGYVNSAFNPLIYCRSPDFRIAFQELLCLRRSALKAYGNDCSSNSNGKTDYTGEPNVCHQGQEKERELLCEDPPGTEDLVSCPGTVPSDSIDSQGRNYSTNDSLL
RUN_DESCRIPTION: The compound was tested for beta-adrenergic activity against Beta-2 adrenergic receptor from guinea pig trachea.
MEASURED_PROPERTY: Kb (µM)
Numbers only here, please. The scale is µM.

Task: Can you look up the measured Kb of C/C(=N\OCC(O)CNC(C)(C)C)c1cc(Cl)c(NC2=NCCN2)c(Cl)c1 (single isomer, unassigned; (+)) for me?
Result: 79.4

Task: Can you look up the measured Kb of C/C(=N\OCC(O)CNC(C)(C)C)c1cc(Cl)c(NC2=NCCN2)c(Cl)c1 (stereo in doubt; 3) for me?
Result: 100

Task: Can you look up the measured Kb of C/C(=N\OCC(O)CNC(C)(C)C)c1cc(Cl)c(OC(C)C2=NCCN2)c(Cl)c1 (centres undefined) for me?
Result: 15.8

Task: Can you look up the measured Kb of C/C(=N\OCC(O)CNC(C)(C)C)c1cc(Cl)c(NC2=NCCN2)c(Cl)c1 (stereo in doubt; (-)-3) for me?
Result: 100

###

ASSAYED_TARGET: Alpha-1A adrenergic receptor (Rattus norvegicus, UniProt P43140)
Sequence (P43140 whole entry): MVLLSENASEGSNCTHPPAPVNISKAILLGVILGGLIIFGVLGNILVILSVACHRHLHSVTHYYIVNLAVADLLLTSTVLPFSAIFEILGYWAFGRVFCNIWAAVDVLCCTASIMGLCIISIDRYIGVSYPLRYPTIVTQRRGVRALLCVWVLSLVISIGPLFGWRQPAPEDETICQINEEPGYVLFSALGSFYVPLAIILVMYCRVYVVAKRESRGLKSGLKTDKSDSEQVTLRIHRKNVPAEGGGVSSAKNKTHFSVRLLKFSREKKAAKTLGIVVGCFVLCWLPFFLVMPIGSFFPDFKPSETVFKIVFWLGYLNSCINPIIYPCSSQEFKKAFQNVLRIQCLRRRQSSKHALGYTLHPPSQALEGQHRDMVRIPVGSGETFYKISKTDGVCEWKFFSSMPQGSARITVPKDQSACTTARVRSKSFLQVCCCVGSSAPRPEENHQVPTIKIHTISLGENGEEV
RUN_DESCRIPTION: The compound was tested for alpha-adrenergic activity against Alpha-1 adrenergic receptor from rat aorta.
MEASUREMENT_CONDITIONS: read-out: pA2 (converted)
MEASURED_PROPERTY: Kb

Task: Give the reported Kb for C/C(=N\OCC(O)CNC(C)(C)C)c1cc(Cl)c(NC2=NCCN2)c(Cl)c1 (stereo in doubt; (-)-3) (system: Alpha-1A adrenergic receptor (Rattus norvegicus, UniProt P43140)).
Result: 12.6 µM

Task: Give the reported Kb for C/C(=N\OCC(O)CNC(C)(C)C)c1cc(Cl)c(OC(C)C2=NCCN2)c(Cl)c1 (stereo not given) (system: Alpha-1A adrenergic receptor (Rattus norvegicus, UniProt P43140)).
Result: 3.98 µM

Task: Give the reported Kb for C/C(=N\OCC(O)CNC(C)(C)C)c1cc(Cl)c(NC2=NCCN2)c(Cl)c1 (stereo in doubt; 3) (system: Alpha-1A adrenergic receptor (Rattus norvegicus, UniProt P43140)).
Result: 4.07 µM

Task: Give the reported Kb for CC(C)(C)NCC(O)COc1cc(Cl)c(NC2=NCCN2)c(Cl)c1 (stereo not given) (system: Alpha-1A adrenergic receptor (Rattus norvegicus, UniProt P43140)).
Result: > 63.1 µM

Task: Give the reported Kb for C/C(=N\OCC(O)CNC(C)(C)C)c1cc(Cl)c(NC2=NCCN2)c(Cl)c1 (single isomer, unassigned; (+)) (system: Alpha-1A adrenergic receptor (Rattus norvegicus, UniProt P43140)).
Result: 7.94 µM

###

ASSAYED_TARGET: Adrenergic receptor alpha-2 (Homo sapiens) (UniProt P08913+P18825+P18089)
MEASUREMENT_CONDITIONS: Cavia porcellus
Description: The compound was tested for alpha-adrenergic activity against alpha-2 adrenergic receptor from guinea pig vas deferens.
MEASURED_PROPERTY: pD2
Quick one: just the number, no unit, thanks!

Task: Can you look up the measured pD2 of C/C(=N\OCC(O)CNC(C)(C)C)c1cc(Cl)c(NC2=NCCN2)c(Cl)c1 (stereo in doubt; 3) for me?
Result: 4.63

Task: Can you look up the measured pD2 of CC(C)(C)NCC(O)COc1cc(Cl)c(NC2=NCCN2)c(Cl)c1 (stereo unspecified) for me?
Result: 3.52

Task: Can you look up the measured pD2 of C/C(=N\OCC(O)CNC(C)(C)C)c1cc(Cl)c(OC(C)C2=NCCN2)c(Cl)c1 (stereo unspecified) for me?
Result: 3.93

Task: Can you look up the measured pD2 of C/C(=N\OCC(O)CNC(C)(C)C)c1cc(Cl)c(NC2=NCCN2)c(Cl)c1 (single isomer, unassigned; (+)) for me?
Result: 5.1

Task: Can you look up the measured pD2 of C/C(=N\OCC(O)CNC(C)(C)C)c1cc(Cl)c(NC2=NCCN2)c(Cl)c1 (stereo in doubt; (-)-3) for me?
Result: 4.9

Task: Can you look up the measured pD2 of CC(C)(C)NCC(O)COCC1CN=C(Nc2c(Cl)cccc2Cl)N1 (stereo unspecified) for me?
Result: 6.4
